The following molecules are shown together with reported Concentration in water solution With Mogroside V values.
details: 72 h
assay-metric: Concentration in water solution With Mogroside V (ng/mL)

[
  {
    "molecule": "COc1cc(C2Oc3cc([C@H]4Oc5cc(O)cc(O)c5C(=O)[C@@H]4O)ccc3OC2CO)ccc1O (stereo partly drawn)",
    "measurement": 18000
  },
  {
    "molecule": "Cc1ccc(-c2cc(C(F)(F)F)nn2-c2ccc(S(N)(=O)=O)cc2)cc1 [Celecoxib, celecoxib, reference compound]",
    "measurement": 47000
  },
  {
    "molecule": "CC(C)/N=c1\\cc2n(-c3ccc(Cl)cc3)c3ccccc3nc-2cc1Nc1ccc(Cl)cc1 [Clofazimine, clofazimine, reference compound]",
    "measurement": 58000
  }
]
